Molecular target: T1, GST-FBP21 (a protein having WW domain)
T1 sequence (O75554 whole entry, species assumed, looked up): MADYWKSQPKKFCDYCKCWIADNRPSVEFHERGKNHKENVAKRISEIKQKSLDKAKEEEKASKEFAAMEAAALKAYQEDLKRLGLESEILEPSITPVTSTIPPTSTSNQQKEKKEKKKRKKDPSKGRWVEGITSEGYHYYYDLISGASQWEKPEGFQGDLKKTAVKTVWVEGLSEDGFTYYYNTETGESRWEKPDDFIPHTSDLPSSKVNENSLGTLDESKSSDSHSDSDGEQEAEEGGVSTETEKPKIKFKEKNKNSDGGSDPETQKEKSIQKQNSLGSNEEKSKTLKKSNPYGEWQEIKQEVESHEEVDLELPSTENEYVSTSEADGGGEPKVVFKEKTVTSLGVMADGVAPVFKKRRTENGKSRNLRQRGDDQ
Test: biotinylated peptide on streptavidin-agarose beads, pull-down, trypsin digest, MALDI-MS, ion m/z1138.7
Non-standard residues stand in square brackets, D forms with d. No end group written: not given here. *: point of attachment. Biotin = O=C1N[C@H]2[C@H](CS[C@H]2CCCCC(=O)*)N1; pT = C[C@@H](OP(=O)(O)O)[C@H](N)C(=O)O
A collection of binders and their measured signal size

BINDER: Biotin-SGSGGTPPPPYTVG [WBP1 biotinylated peptide (Biotin-…)]
signal size: 9000

BINDER: Biotin-SGSGVLIKRRS[pT]EL-OH (SMILES CC[C@H](C)[C@H](NC(=O)[C@H](CC(C)C)NC(=O)[C@@H](NC(=O)CNC(=O)[C@H](CO)NC(=O)CNC(=O)[C@H](CO)NC(=O)CCCC[C@@H]1SC[C@@H]2NC(=O)N[C@@H]21)C(C)C)C(=O)N[C@@H](CCCCN)C(=O)N[C@@H](CCCNC(=N)N)C(=O)N[C@@H](CCCNC(=N)N)C(=O)N[C@@H](CO)C(=O)N[C@H](C(=O)N[C@@H](CCC(=O)O)C(=O)N[C@@H](CC(C)C)C(=O)O)[C@@H](C)OP(=O)(O)O) [COXG biotinylated phosphopeptide (Biotin-…*EL-COOH)]
signal size: 30000

BINDER: Biotin-SGSGVLIKRRSTEL-OH (SMILES CC[C@H](C)[C@H](NC(=O)[C@H](CC(C)C)NC(=O)[C@@H](NC(=O)CNC(=O)[C@H](CO)NC(=O)CNC(=O)[C@H](CO)NC(=O)CCCC[C@@H]1SC[C@@H]2NC(=O)N[C@@H]21)C(C)C)C(=O)N[C@@H](CCCCN)C(=O)N[C@@H](CCCNC(=N)N)C(=O)N[C@@H](CCCNC(=N)N)C(=O)N[C@@H](CO)C(=O)N[C@H](C(=O)N[C@@H](CCC(=O)O)C(=O)N[C@@H](CC(C)C)C(=O)O)[C@@H](C)O) [COXD biotinylated peptide (Biotin-…-COOH)]
signal size: 200

BINDER: Biotin-SGSGEQPL[pT]PVTDL [CDC25 biotinylated phosphopeptide (Biotin-…*PVTDL)]
signal size: 500
